Recorded values, source PubChem BioAssay.

Measured inhibition, listed per entry.
Experiment: 384-well plate pilot, post-Golgi transport modulator project, inhibition of yeast transport mutant growth (AID 636); note: test concentration not given here
Settings: absorbance 615 nm, about 18 h, hits give high values
API: value field is a number in %; no unit string.

Look over these answered cases.
# compound, inhibition, %
records = [
    ("CN1CCCc2cc(C#N)c(=O)[nH]c21", -5.71),
    ("O=C1NC(c2cccnc2)C(C(=O)c2cccs2)C(O)(C(F)(F)F)N1 (stereo not given)", -0.27),
    ("CCN1CCN(c2nc3c(c(=O)n(C)c(=O)n3C)n2Cc2cccc3ccccc23)CC1", -6.58),
]

**Query** Which inhibition reading was recorded for the compound Cc1ccc(S(=O)(=O)N2CCN(c3nc(C(C)C)c4c(c3C#N)CC(C)(C)OC4)CC2)cc1 ?
**Result** -1.22

**Query** Which inhibition reading was recorded for the compound CCN(CC)c1ccc2c(C)c(-c3ccc(N)cc3)c(=O)oc2c1 ?
**Result** -7.33

**Query** Which inhibition reading was recorded for the compound CC(=O)Nc1c(O)n(C)c2ccccc12 ?
**Result** -5.75
